Recorded Kp, one value per entry.
- Assay Details: Mouse bolus injection assay (blood and brain levels of Epothilones)
- Measurement Setup: male, SCID, mouse, in vivo, iv, 5 mg/kg

| Molecule | Kp |
| --- | --- |
| CCCC1C(=O)C(C)(C)C(O)CC(=O)OC(C(C)=Cc2csc(C)n2)CC=C(C)CCCC(C)C1O (centres unmarked) | 1 |
| C=CCC1C(=O)C(C)(C)C(O)CC(=O)OC(c2ccc3sc(C)nc3c2)CC2OC2(C)CCCC(C)C1O (centres unmarked) | 0.8 |

---

- Assay Details: Mouse bolus injection assay (blood and brain levels of Epothilones)
- Measurement Setup: male, SCID, mouse, in vivo, 5 mg/kg
Value Type: concentration at 10 min (µg/mL)

| Compound | Experimental Result |
| --- | --- |
| CC(=O)O[C@H]1C(=O)[C@@]2(C)[C@H]([C@H](OC(=O)c3ccccc3)[C@]3(O)C[C@H](OC(=O)[C@H](O)[C@@H](NC(=O)c4ccccc4)c4ccccc4)C(C)=C1C3(C)C)[C@]1(OC(C)=O)CO[C@@H]1C[C@@H]2O [Paclitaxel, reference compound] | 0.8 |

---

- Assay Details: Mouse bolus injection assay (blood and brain levels of Epothilones)
- Measurement Setup: male, SCID, mouse, in vivo, 5 mg/kg

| Molecule | concentration at 40 min / ng/mL |
| --- | --- |
| CC(=O)O[C@H]1C(=O)[C@@]2(C)[C@H]([C@H](OC(=O)c3ccccc3)[C@]3(O)C[C@H](OC(=O)[C@H](O)[C@@H](NC(=O)c4ccccc4)c4ccccc4)C(C)=C1C3(C)C)[C@]1(OC(C)=O)CO[C@@H]1C[C@@H]2O [Paclitaxel, reference compound] | 200 |

---

- Assay Details: Mouse bolus injection assay (blood and brain levels of Epothilones)
- Measurement Setup: 5 mg/kg iv bolus, 3H-labeled, male SCID mice
Recorded Brain AUC (0-40 min), one value per entry.
Value Type: Brain AUC (0-40 min) (µg·min/mL)

| Compound | Value Type | Result Units | Experimental Result |
| --- | --- | --- | --- |
| CCCC1C(=O)C(C)(C)C(O)CC(=O)OC(C(C)=Cc2csc(C)n2)CC=C(C)CCCC(C)C1O (stereo not shown) [Compound 1] | Brain AUC (0-40 min) | µg·min/mL | 21 |
| C=CCC1C(=O)C(C)(C)C(O)CC(=O)OC(c2ccc3sc(C)nc3c2)CC2OC2(C)CCCC(C)C1O (stereo not shown) [Compound 3] | Brain AUC (0-40 min) | µg·min/mL | 20 |
| CCCC1C(=O)C(C)(C)C(O)CC(=O)OC(C(C)=Cc2csc(C)n2)CC2OC2(C)CCCC(C)C1O (stereo not shown) [Compound 2] | Brain AUC (0-40 min) | µg·min/mL | 35 |
| CC(=O)O[C@H]1C(=O)[C@@]2(C)[C@H]([C@H](OC(=O)c3ccccc3)[C@]3(O)C[C@H](OC(=O)[C@H](O)[C@@H](NC(=O)c4ccccc4)c4ccccc4)C(C)=C1C3(C)C)[C@]1(OC(C)=O)CO[C@@H]1C[C@@H]2O [Paclitaxel, reference compound] | Brain AUC (0-40 min) | µg·min/mL | 0 |
